Assay: VP16 transactivation reporter inhibitors, counter-screen for LRH-1 inverse agonist project, cell-based, luminescence, high throughput (AID 651615)
Settings: Gal4-VP16 luciferase reporter cells, at 3.6 µM, stronger effect = higher value
value-kind: inhibition (%)

COc1ccc(CCNC(=O)CSC2=Nc3ccccc3C3=NC(C(C)C)C(=O)N23)cc1OC (stereo not given) ... 0.61
CCN(Cc1ccccc1)c1ccc(/C=N/N2CCOCC2)cc1 ... -9.02
COc1cc(SC)ccc1C(=O)Nc1nc2ccccc2[nH]1 ... 92.6
Cc1ccc2c(c1)N(C)/C(=C/c1cccc[n+]1C)S2 ... 67
CCOc1ccc(CCNC(=O)COC(=O)c2nc(Cl)ccc2Cl)cc1OCC ... -0.88
